system: human breast cancer cell line MCF-7; experiment: Growth inhibition of human breast cancer cell MCF-7 (Methylene Blue staining); type: cell-based; details: MCF7, 144 h, 1 nM added amount of E (estrogen), 6 days, read-out: Growth inhibition of MCF-7 (human breast cancer cells) (IC₅₀)
MEASURED_PARAMETER: pIC50
Kindly note that pIC50 refers to -log10 of the concentration in mol/L and answer with the value alone.

pIC50 of `CCC(=C(c1ccc(O)cc1)c1ccc(OCCN(C)C)cc1)c1ccc2c(c1)OCO2` on human breast cancer cell line MCF-7?
6.72

pIC50 of CC/C(=C(\c1ccccc1)c1ccc(OCC(O)CNC2CCCCC2)cc1)c1ccccc1 (centres unmarked) on human breast cancer cell line MCF-7?
5.92

pIC50 of CCC(=C(c1ccc(O)cc1)c1ccc(OCC(O)CN(C)C)cc1)c1ccccc1 (centres unmarked) on human breast cancer cell line MCF-7?
6.68

pIC50 of `CCC(=C(c1ccccc1)c1ccc(OC(CN(CC)CC)CN(CC)CC)cc1)c1ccccc1` on human breast cancer cell line MCF-7?
5.80

pIC50 of CCC(=C(c1ccc(O)cc1)c1ccc(OCC(O)CNC)cc1)c1ccc2c(c1)OCO2 (centres unmarked) on human breast cancer cell line MCF-7?
6.30

***
pIC50 of CCC(=C(c1ccc(O)cc1)c1ccc(OCC(O)CN(C)CC)cc1)c1ccc2c(c1)OCO2 (centres unmarked) on human breast cancer cell line MCF-7?
7.00

pIC50 of CCC(=C(c1ccc(O)cc1)c1ccc(OCC(O)CNC2CCCCC2)cc1)c1ccccc1 (centres unmarked) on human breast cancer cell line MCF-7?
6.21

pIC50 of `CCC(=C(c1ccc(O)cc1)c1ccc(OC(CN(C)C)CN(C)C)cc1)c1ccc2c(c1)OCO2` on human breast cancer cell line MCF-7?
6.37

pIC50 of CCC(=C(c1ccccc1)c1ccc(OCC(O)CN(C)C)cc1)c1ccccc1 (centres unmarked) on human breast cancer cell line MCF-7?
5.48

pIC50 of CCNCC(O)COc1ccc(C(=C(CC)c2ccc3c(c2)OCO3)c2ccc(O)cc2)cc1 (centres unmarked) on human breast cancer cell line MCF-7?
7.30

* * *

test system: human breast cancer cell line MCF-7; test: Growth inhibition of human breast cancer cell MCF-7 (Methylene Blue staining); format: cell-based; details: MCF7, 144 h, 1 nM added amount of E (estrogen), 6 days, read-out: Growth inhibition of MCF-7 (human breast cancer cells) (IC₅₀)
Threshold check on IC50: strictly below 500 nM is 1; on or above 500 nM is 0.

For CCC(=C(c1ccc(O)cc1)c1ccc(OCC(O)CNC2CCCCC2)cc1)c1ccc2c(c1)OCO2 (stereo not shown) , is the recorded IC50 below the cut-off of 500 nM?
1

For CCC(=C(c1ccc(O)cc1)c1ccc(OCC(CN(C)C)OC(C)=O)cc1)c1ccc2c(c1)OCO2 (stereo not shown) , is the recorded IC50 below the cut-off of 500 nM?
1

For CCNCC(O)COc1ccc(/C(=C(/CC)c2ccccc2)c2ccccc2)cc1 (stereo not shown) , is the recorded IC50 below the cut-off of 500 nM?
0

For CCC(=C(c1ccc(OCC(CN(C)C)OC(C)=O)cc1)c1ccc(OC(C)=O)cc1)c1ccc2c(c1)OCO2 (stereo not shown) , is the recorded IC50 below the cut-off of 500 nM?
1

For CC/C(=C(\c1ccccc1)c1ccc(OCC(O)CN(C)C)cc1)c1ccc2c(c1)OCO2 (stereo not shown) , is the recorded IC50 below the cut-off of 500 nM?
0

***
For `CCC(=C(c1ccc(O)cc1)c1ccc(OCCNC2CCCCC2)cc1)c1ccc2c(c1)OCO2` , is the recorded IC50 below the cut-off of 500 nM?
1

For CCC(=C(c1ccc(O)cc1)c1ccc(OCC(O)CN(CC)CC)cc1)c1ccc2c(c1)OCO2 (stereo not shown) , is the recorded IC50 below the cut-off of 500 nM?
1

* * *

system: human breast cancer cell line MCF-7; experiment: Growth inhibition of human breast cancer cell MCF-7 (Methylene Blue staining); assay type: cell-based; conditions: MCF7, 144 h, 1 nM added amount of E (estrogen), 6 days, read-out: Growth inhibition of MCF-7 (human breast cancer cells) (IC₅₀)
MEASURED_PARAMETER: IC50 (µM)
Express it in µM; write the number only.

As a guide, the following entries are already answered.
Field request: IC50 | item: CCC(=C(c1ccccc1)c1ccc(OC(CN(C)C)CN(C)C)cc1)c1ccccc1 [Compound 35]
1.9

Field request: IC50 | item: CCC(=C(c1ccc(OCCN(C)C)cc1)c1cccc(C=NO)c1)c1ccccc1 [Compound 23]
6.8

Field request: IC50 | item: CCC(=C(c1ccc(C=NO)cc1)c1ccc(OCCN(C)C)cc1)c1ccccc1 [Compound 21]
4.6

***
Field request: IC50 | item: CCC(=C(c1ccc(O)cc1)c1ccc(OC(CN(CC)CC)CN(CC)CC)cc1)c1ccc2c(c1)OCO2 [Compound 37]
0.06

Field request: IC50 | item: CCC(=C(c1ccc(O)cc1)c1ccc(OCC(O)CN(C)C2CCCCC2)cc1)c1ccc2c(c1)OCO2 (stereo not shown) [Compound 4]
0.21

Field request: IC50 | item: CCC(=C(c1ccc(C=NOC)cc1)c1ccc(OCCN(C)C)cc1)c1ccccc1 [Compound 22]
7.1

Field request: IC50 | item: CCC(=C(c1ccccc1)c1ccc(OCC(O)CN(C)C)cc1)c1ccc2c(c1)OCO2 (stereo not shown) [Compound 34]
6.3
